- target-desc: T1, human CXCR4 (CXCR4 positive lipoparticles) (Homo sapiens, UniProt P61073)
- T1 construct: purchased Integral Molecular LEV-101B
- T1 sequence (P61073 whole entry): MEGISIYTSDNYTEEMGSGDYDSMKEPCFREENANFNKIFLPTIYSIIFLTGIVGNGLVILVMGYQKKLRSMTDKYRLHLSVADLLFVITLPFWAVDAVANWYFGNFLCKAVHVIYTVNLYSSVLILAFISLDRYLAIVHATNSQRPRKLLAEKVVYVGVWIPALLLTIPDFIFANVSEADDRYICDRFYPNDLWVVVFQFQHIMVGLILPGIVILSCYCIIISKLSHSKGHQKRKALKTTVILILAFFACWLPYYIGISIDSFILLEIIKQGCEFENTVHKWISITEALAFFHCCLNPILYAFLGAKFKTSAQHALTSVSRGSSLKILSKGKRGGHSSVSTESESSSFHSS
- method: Biacore SPR kinetic binding to immobilised CXCR4 lipoparticles
- test-context: off-rate, CXCR4 expressed on lipoparticles (Table 3)
Kindly state dissociation rate constant (kd) for each of the entries shown.
Numbers only.

Check out these entries, answers already filled in.
AM4-239: affinity matured i-body, CDR1 SEQ ID NO: 89, CDR3 SEQ ID NO: 90 (protein) LQVDIVPSQGEISVGESKFFLCQVAGAYSDIRISWFSPNGEKLTPNQQRISVVWNDDSSSTLTIYNANIDDAGIYKCVVYRTGGYRHRYLVLGEATVNVKIFQ; 0.01356
AM5-245: affinity matured CXCR4 i-body, SEQ ID NO: 68 (protein, protein sequence encoding AM5-245) LQVDIVPSQGEISVGESKFFLCQAAGSGSHIRISWFSPNGEKLTPNQQRISVVWNDDSSSTLTIYNANIDDAGIYKCVVWRTGGYRHRALVLGEATVNVKIFQ; 0.01445

# next molecule below
// lookup dissociation rate constant (kd) for AM3-523: affinity matured CXCR4 i-body, SEQ ID NO: 56 (protein, protein sequence encoding AM3-523) LQVDIVPSQGEISVGESKFFLCQVAGSGSHMRISWFSPNGEKLTPNQQRISVVWNDDSSSTLTIYNANIDDAGIYKCVVWVGGYRHRALVLGEATVNVKIFQ 0.00998
